Tested on: HCT-15
Quantity Name: GI50

Form: compound = C[N+]1([O-])C2CCC1CC(OC(=O)C(CO)c1ccccc1)C2 (stereo not drawn) ; GI50 = > 55.8 µM

Form: compound = CC(=O)NC(CCCCNC(=O)N(CCCl)N=O)C(=O)NCc1ccccc1 (stereo not drawn) ; GI50 = > 100 µM

Form: compound = N#C/C=C1\C=CC(O)C(O)C1OC1OC(CO)C(O)C(O)C1O (stereo not drawn) ; GI50 = > 100 µM

====

System: MOLT-4
Assay: NCI tumour cell line growth inhibition, 48 h
The source made the active and inactive calls. No stated cut-off is given here; in the data, active = GI50 up to about 1.1 µM and inactive = higher.
So I've got a bunch of compounds here, and I need their GI50 values.

Form: compound = Cc1cnccc1/N=N/c1ccc(N(C)C)cc1 ; GI50 = 31.3 µM (inactive)

Form: compound = Cc1c(C(=O)O)n(C)c(=O)n(C)c1=O ; GI50 = > 100 µM (inactive)

Form: compound = COC(=O)/C=C1\C(CO[Si](C)(C)C(C)(C)C)OC(n2cc(C)c(=O)n(C)c2=O)C1O[Si](C)(C)C(C)(C)C (stereo unspecified) ; GI50 = > 100 µM (inactive)

Form: compound = CCN(CC(COc1ccc2c(c1)[n+]([O-])nc(N)[n+]2[O-])OC(C)=O)C(C)=O (stereo unspecified) ; GI50 = 20.8 µM (inactive)

Form: compound = CSc1nc(Br)nc2c1ncn2C1CC(Oc2ccc(C)cc2)C(COc2ccc(C)cc2)O1 (stereo unspecified) ; GI50 = > 100 µM (inactive)

Form: compound = CC(=O)OC/C=C/[C@H](O[Si](C)(C)C(C)(C)C)[C@@H](O)/C=C/COC(C)=O ; GI50 = 23.7 µM (inactive)

====

Test system: M19-MEL
Assay: NCI tumour cell line growth inhibition, 48 h
The source made the active and inactive calls. No stated cut-off is given here; in the data, active = GI50 up to about 1.1 µM and inactive = higher.
Outcomes you can answer with include only these: active, inactive

Task: Tell me the recorded outcome of this test for COc1cc(/C=C(\NC(=O)c2ccccc2)c2nc3ccc4c(c3[nH]2)C(=O)c2ccccc2C4=O)cc(OC)c1OC .
Result: inactive

Task: Tell me the recorded outcome of this test for Cn1nc(-c2ccccc2)c2c(/C=C/c3ccc(Cl)cc3)onc2c1=O .
Result: inactive

Task: Tell me the recorded outcome of this test for COC1C(O)C(n2ncc3c(SC)nc(SC)nc32)OC1C(O)CO (stereo not drawn) .
Result: inactive

Task: Tell me the recorded outcome of this test for Cc1cc(NC(=O)NC(=O)c2ccccc2[N+](=O)[O-])ccc1Oc1ncc(Cl)cn1 .
Result: active

Task: Tell me the recorded outcome of this test for C=C1C(=O)C23[C@H](O)C1CC[C@H]2[C@]12COC3(O)[C@@H](O)[C@@H]1C(C)(C)CC[C@@H]2O .
Result: inactive

Task: Tell me the recorded outcome of this test for O=[PH](O)c1cccnc1 .
Result: inactive

Task: Tell me the recorded outcome of this test for O=c1c(-c2ccccc2)c2oc(c1-c1ccccc1)CS(=O)(=O)CCC2 .
Result: inactive

Task: Tell me the recorded outcome of this test for C/C(=N\NC(=O)CC(=O)N(C(=O)c1ccc(Cl)cc1)c1ccc(C)cc1)c1ccccc1O .
Result: inactive

====

Test system: CAKI-1
Assay: NCI tumour cell line growth inhibition, 48 h
Calls of active or inactive are those of the source. Cut-off read from the data, not from the text of the source: active = GI50 up to about 1.1 µM and inactive = higher. Non-standard residues stand in square brackets, D forms with d. Residues, ends and D or L forms follow the SMILES beside them. *: point of attachment. Benzoyl(4-OMe) = COc1ccc(C(=O)*)cc1; 2Thi = N[CH](Cc1cccs1)C(=O)O
Outcomes you can answer with include only these: 1.0 for active, 0.0 for inactive

Task: Tell me the recorded outcome of this test for CC1(Br)C(=O)NC(=O)N([C@H]2C[C@H](O)[C@@H](CO)O2)C1N=[N+]=[N-] (some centres undefined) .
Result: 0.0

Task: Tell me the recorded outcome of this test for CC(C)CNc1nc(N)nc(O)c1NC=O .
Result: 0.0

Task: Tell me the recorded outcome of this test for N=C(N)SC(c1ccccc1)c1ccccc1 .
Result: 0.0

Task: Tell me the recorded outcome of this test for CC1=NOC2(C1)C(=O)Nc1ccccc12 (centres undefined) .
Result: 0.0

Task: Tell me the recorded outcome of this test for COc1ccc2[nH]c3c(C)c4ccncc4c(C)c3c2c1 .
Result: 1.0

Task: Tell me the recorded outcome of this test for CN1CC[C@]2(C)c3c(O)cccc3CC3CCCC1C32C (some centres undefined) .
Result: 0.0

Task: Tell me the recorded outcome of this test for COC(=O)c1[nH]c(=S)[nH]c(=O)c1-c1ccc(Cl)cc1 .
Result: 0.0

Task: Tell me the recorded outcome of this test for O=C(O/N=C1/CCC/C1=C\c1ccccc1)c1ccc([N+](=O)[O-])cc1 .
Result: 0.0

Task: Tell me the recorded outcome of this test for O=[N+]([O-])c1ccc(-c2cnc3ccccn23)cc1 .
Result: 0.0

Task: Tell me the recorded outcome of this test for O=C1/C(=C/c2cccnc2)C(n2cccc2)c2c(Br)sc(Br)c21 (centres undefined) .
Result: 0.0

Task: Tell me the recorded outcome of this test for CCC(C)C(NC(=O)C(Cc1cccs1)NC(=O)C(CC(C)C)NC(=O)C(CC(C)C)NC(=O)C(CCCCN)NC(=O)C(CCCNC(=N)N)NC(=O)c1ccc(OC)cc1)C(=O)NC(CC(C)C)C(N)=O (centres undefined) ({Benzoyl(4-OMe)}-RKLL[2Thi]IL-NH2; configuration not given here) .
Result: 0.0

Task: Tell me the recorded outcome of this test for BrC1=CC=C2NCCCCCC/N=C3\C=CC(Br)=CC=C3NCCCCCC/N=C\2C=C1 .
Result: 0.0

Task: Tell me the recorded outcome of this test for CN(C)c1ccc(C(c2ccc(N(C)C)cc2)c2ccc([N+](=O)[O-])cc2)cc1 .
Result: 0.0

Task: Tell me the recorded outcome of this test for CSc1nc(NC2OC(COC(C)=O)C(OC(C)=O)C(OC(C)=O)C2OC(C)=O)c2c(OC(C)=O)c(C)c(=O)oc2n1 (centres undefined) .
Result: 0.0

Task: Tell me the recorded outcome of this test for O=C1C=C(Sc2ccccc2)c2nccc3c2c1nc1ccccc13 .
Result: 0.0

Task: Tell me the recorded outcome of this test for Cc1ccccc1NC(=O)C(=O)CC(=O)c1c(C)[n+]([O-])c2ccccc2[n+]1[O-] .
Result: 0.0

Task: Tell me the recorded outcome of this test for N#CCCCCC12C3C(=O)N(c4ccccc4)C(=O)C3ON1O[C@@H]1C(=O)N(c3ccccc3)C(=O)[C@@H]12 (some centres undefined) .
Result: 0.0

Task: Tell me the recorded outcome of this test for CC(C)(C)OC(=O)C1CC[C@@H](CC(=O)Oc2ccc([N+](=O)[O-])cc2)N1 (some centres undefined) .
Result: 0.0

Task: Tell me the recorded outcome of this test for CC1=CC(=O)/C(=C/N2CCNC2=S)C(=O)O1 .
Result: 0.0

Task: Tell me the recorded outcome of this test for CN(CCCN1CCCC1)CCCN(C)C(=O)Cc1ccc(Cl)c(Cl)c1 .
Result: 0.0

Task: Tell me the recorded outcome of this test for Cc1c(NC(=S)NC(=O)c2ccc([N+](=O)[O-])cc2)c(=O)n(-c2ccccc2)n1C .
Result: 0.0

Task: Tell me the recorded outcome of this test for COc1ccc(-c2c(C#N)c(O)n(NS(=O)(=O)c3ccc(C)cc3)c(=O)c2C#N)cc1 .
Result: 0.0

Task: Tell me the recorded outcome of this test for COc1cc(C(C)O)c[n+](CCc2c[nH]c3ccccc23)c1 (centres undefined) .
Result: 0.0

Task: Tell me the recorded outcome of this test for CC(C)(C)OC(=O)N1C(OP(=O)(Oc2ccccc2)Oc2ccccc2)=CSc2ccccc21 .
Result: 0.0

Task: Tell me the recorded outcome of this test for COc1ccc2c(c1)C(=O)Cc1ccccc1CC2 .
Result: 0.0

Task: Tell me the recorded outcome of this test for O=C(O)c1ccc(Nc2c3ccccc3nc3ccccc23)cc1 .
Result: 0.0

Task: Tell me the recorded outcome of this test for O=c1oc2cc(/N=C/c3ccc4c(c3)OCO4)ccc2c2ccccc12 .
Result: 0.0

Task: Tell me the recorded outcome of this test for COC(=O)C1=C(O)c2ccc(Cl)cc2S(=O)(=O)N1C .
Result: 0.0

Task: Tell me the recorded outcome of this test for c1ccc2c(c1)NCc1cc3ccccc3nc1O2 .
Result: 0.0
